# assayed system: T1, nfP2X7 CAR 1
# T1 construct: CAR-positive cells gated by the co-expressed EGFR marker; also called nfP2X7 targeted CAR; nfP2X7 CAR on EGFR+ T cells
# assay text: flow cytometry, anti-His-FITC, MFI on EGFR+ (CAR+) T cells over background 0.44
recorded endpoint: HisTag MFI Ratio (background 0.44)
Reply with just the number.

Some binders with recorded HisTag MFI Ratio (background 0.44):
CD19 BRIDGE variant B19 (Fab, V domains shown) VH: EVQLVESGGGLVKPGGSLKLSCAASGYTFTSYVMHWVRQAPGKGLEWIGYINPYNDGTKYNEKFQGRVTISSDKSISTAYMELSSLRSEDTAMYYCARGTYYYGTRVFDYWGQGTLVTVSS VL: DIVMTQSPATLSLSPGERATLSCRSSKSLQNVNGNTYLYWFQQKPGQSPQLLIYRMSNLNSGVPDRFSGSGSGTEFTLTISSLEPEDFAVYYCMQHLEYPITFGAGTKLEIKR: 4.9
CD19 BRIDGE variant B9 (Fab, V domains shown) VH: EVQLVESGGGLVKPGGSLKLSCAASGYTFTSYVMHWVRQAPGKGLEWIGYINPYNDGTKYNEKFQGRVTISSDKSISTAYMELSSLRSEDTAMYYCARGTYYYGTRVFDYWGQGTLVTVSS VL: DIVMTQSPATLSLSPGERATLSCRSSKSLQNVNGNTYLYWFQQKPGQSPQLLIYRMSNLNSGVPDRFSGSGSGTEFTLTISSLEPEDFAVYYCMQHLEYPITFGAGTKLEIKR: 5.3

// below: HisTag MFI Ratio (background 0.44) requested for another binder
Requested read-out: HisTag MFI Ratio (background 0.44). Entry: CD19 BRIDGE variant B20 (Fab, V domains shown) VH: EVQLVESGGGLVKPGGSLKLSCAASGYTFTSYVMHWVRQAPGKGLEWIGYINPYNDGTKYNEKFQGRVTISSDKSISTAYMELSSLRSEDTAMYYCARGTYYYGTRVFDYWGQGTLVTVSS VL: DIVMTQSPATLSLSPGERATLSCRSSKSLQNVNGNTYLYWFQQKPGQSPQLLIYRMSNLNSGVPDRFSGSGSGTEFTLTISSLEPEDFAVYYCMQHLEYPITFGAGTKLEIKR
4.8
